# target: MAb 3A2
# test_method_notes: BIAcore surface plasmon resonance, equilibrium dissociation constant
# Format: binding, mouse
# details: hapten conjugate 16-OA, racemic hapten conjugate
observed_property: Kd (nM)
Just the number please, in nM, no unit attached.

Which Kd reading was recorded for the compound CCc1cnc(C2=NC(C)(C(C)C)C(=O)N2)c(C(=O)O)c1 (stereo not shown) ? 24.7

---

# System: panel of monoclonal antibodies (MAbs)
# test_method_notes: Detection of imidazolinones by the panel of MAbs (EIA)
# Assay type: binding, mouse
Each item that follows carries a reported detection range.

These solved cases illustrate the format of a correct answer.
• CC(C)C1(C)N=C(c2ncccc2C(=O)O)NC1=O (stereo not shown) = 300-500 ppb
• CC(C)C1(C)N=C(c2nc3ccccc3cc2C(=O)O)NC1=O (stereo not shown) = 3 to 30 ng/mL

Kindly state the measured detection range obtained for CCc1cnc(C2=NC(C)(C(C)C)C(=O)N2)c(C(=O)O)c1 (stereo not shown) with panel of monoclonal antibodies (MAbs). 3 to 30 ng/mL

Kindly state the measured detection range obtained for Cc1cnc(C2=NC(C)(C(C)C)C(=O)N2)c(C(=O)O)c1 (stereo not shown) with panel of monoclonal antibodies (MAbs). 3 to 30 ng/mL

---

# target: MAb 3A5 (VH and VL N-termini SEQ.ID NOS. 1 and 2)
# test_method_notes: BIAcore surface plasmon resonance, equilibrium dissociation constant
# Type: binding, mouse
# details: hapten conjugate 16-OA, racemic hapten conjugate
observed_property: pKd
// scale note: pKd = -log10(conc_M); give the bare number

Any idea what pKd was measured for CCc1cnc(C2=NC(C)(C(C)C)C(=O)N2)c(C(=O)O)c1 (stereo not shown) ? 8.02

---

# target: MAb 3A5 (VH and VL N-termini SEQ.ID NOS. 1 and 2)
# test_method_notes: Kinetic exclusion fluoroimmunoassay (KinExA), equilibrium dissociation constant
# Type: binding, mouse
# details: hapten conjugate 16-BSA, racemic hapten conjugate
observed_property: pKd
pKd here: minus log base 10 of the concentration, concentration in moles per litre.

pKd lookup needed for CCc1cnc(C2=NC(C)(C(C)C)C(=O)N2)c(C(=O)O)c1 (stereo not shown) [imazethapyr] , thanks. 7.14

---

# target: MAb 3A5 (VH and VL N-termini SEQ.ID NOS. 1 and 2)
# test_method_notes: BIAcore surface plasmon resonance, equilibrium dissociation constant
# Format: binding, mouse
# details: hapten conjugate 17-OA, racemic hapten conjugate
observed_property: Kd
Lab note: write values as number then unit, every time.

Consider the compound CCc1cnc(C2=NC(C)(C(C)C)C(=O)N2)c(C(=O)O)c1 (stereo not shown) and give its measured Kd. 10.8 nM

---

# target: MAb 3A2
# test_method_notes: BIAcore surface plasmon resonance, equilibrium dissociation constant
# Assay type: binding, mouse
# details: hapten conjugate 17-OA, racemic hapten conjugate
observed_property: Kd (nM)
Response body: numeric value in nM, unit text excluded.

Test system MAb 3A2; read-out Kd; what value for CCc1cnc(C2=NC(C)(C(C)C)C(=O)N2)c(C(=O)O)c1 (stereo not shown) ? 51.6
